# credit: ChEMBL document CHEMBL1201862

# System: MCF7
# assay_explanation: NCI tumour cell line growth inhibition, 48 h
The source made the active and inactive calls. Rule as the data show it: active = GI50 up to about 1.1 µM and inactive = higher.

{"compound": "CCOC(=O)c1cccc(NC(=O)CI)c1", "GI50": "0.394 µM (active)"}
{"compound": "O=C1C2=Cc3ccccc3OC2(O)Oc2cc(O)cc(O)c21 (stereo not given)", "GI50": "> 100 µM (inactive)"}
{"compound": "CC1C(=O)C(C)C(c2cccs2)N(N=O)C1c1cccs1 (stereo not given)", "GI50": "> 100 µM (inactive)"}
{"compound": "CC1(C)[C@@H]2CC[C@]1(C)[C@H](OC(=O)/C=C/c1ccccc1)C2", "GI50": "16.7 µM (inactive)"}
{"compound": "COCP1(=S)OC(C)CCN1C(C)C (stereo not given)", "GI50": "> 100 µM (inactive)"}
{"compound": "O=c1cc(-c2ccncc2)[nH]c2cc3c(cc12)OCO3", "GI50": "> 100 µM (inactive)"}
{"compound": "CCOC(=O)c1ccc(C(=O)/C(C(C)=O)=C2\\CCCN2C)n1C", "GI50": "61.7 µM (inactive)"}
{"compound": "Nc1cc(N2CCOCC2)nc(=O)n1-c1ccc(Cl)cc1", "GI50": "> 100 µM (inactive)"}
{"compound": "COc1ccc(NC(=O)CC(=O)N2N=C(c3ccccc3)C(/N=N/c3ccc(S(=O)(=O)CCOS(=O)(=O)O)cc3)C2=O)cc1 (stereo not given)", "GI50": "> 100 µM (inactive)"}
{"compound": "CC1CC(c2ccccc2)Nc2nc3ccccc3n21 (stereo not given)", "GI50": "> 100 µM (inactive)"}
{"compound": "CC(C)(C)OC(=O)NC12C3C4C1C1C2C3C41NC(=O)OC(C)(C)C (stereo not given)", "GI50": "29.6 µM (inactive)"}
{"compound": "COc1cc(C=O)cc(/C=N/c2ccccn2)c1O", "GI50": "52.1 µM (inactive)"}
{"compound": "COc1ccc(N[C@H]([C@@H](c2ccccc2)[S+]([O-])c2ccc(C)cc2)C(F)(F)F)cc1 (stereo not given in full)", "GI50": "38.9 µM (inactive)"}
{"compound": "COc1ccccc1Cc1ccc(C2C=CC3(CC(=O)C=C3C)C(=O)C2)o1 (stereo not given)", "GI50": "17.1 µM (inactive)"}
{"compound": "COC(=O)C(=O)C(C(=O)C(=O)Nc1ccc([N+](=O)[O-])cc1[N+](=O)[O-])c1nc2ccc(Cl)cc2nc1O (stereo not given)", "GI50": "> 100 µM (inactive)"}
{"compound": "CC(=O)OCC1OC(N2C(=O)NC(=O)C3C=C4CCCCC4=CC32)C(OC(C)=O)C1OC(C)=O (stereo not given)", "GI50": "> 100 µM (inactive)"}
{"compound": "CSCCCNC(=O)c1csc([C@@H](CSC)NC(=O)CCNC(=O)[C@@H](NC(=O)OCC(Br)(Br)Br)C(C)O)n1 (stereo not given in full)", "GI50": "94.2 µM (inactive)"}
{"compound": "O=[N+]([O-])c1ccc(-c2nc3cc([N+](=O)[O-])ccc3[nH]2)cc1", "GI50": "31 µM (inactive)"}
{"compound": "O=C1C[C@H](COCc2ccccc2)NC(=O)C[C@H](COCc2ccccc2)NC(=O)C[C@H](COCc2ccccc2)N1", "GI50": "> 100 µM (inactive)"}
{"compound": "COC(=O)c1cc2c(cc1CC(Cc1ccc3c(c1)CCC3)C(=O)OC)CCC2 (stereo not given)", "GI50": "24.8 µM (inactive)"}
